Tested on: HL-60(TB) leukemia
TEST_PROTOCOL: NCI-60 one-dose screen, 48 h (100 = growth as untreated, 0 = no growth, -100 = all killed)
COND: 10 µM unless noted
Procedure: Growth inhibition of the HL-60(TB) human tumor cell line is measured as a screen for anti-cancer activity. Cells are grown in 96 well plates and exposed to the test compound for 48 hours. Compounds are tested at a single concentration, which is 10^-5 M for most compounds. The reported endpoint is percent growth (GI% or GIPRCNT), where numbers from 0 - 100% represent growth inhibition, and numbers from -100% - 0 represent cell death. For example, a value of 40 represents 60% growth inhibition. […]
Compounds without any hit were thinned out: in the full panel of roughly 83,000, 20% have a hit.
Entries whose growth is below 10% take true; entries at or above 10% take false.

INSERT INTO measurements (molecule, measurement_target, class_assignment) VALUES
  ('CN(C)CCCOc1c2ccc(Cl)cc2nc2c1oc1ccccc12', 'HL-60(TB) leukemia', 'true'),
  ('O=S(=O)(NCCCNc1nccc(-c2[nH]c(-c3ccccc3)nc2-c2ccc(F)c(O)c2)n1)c1ccc(C(F)(F)F)cc1', 'HL-60(TB) leukemia', 'true'),
  ('Clc1ccc2c(NCCCn3ccnc3)c3oc4ccc(Cl)cc4c3nc2c1', 'HL-60(TB) leukemia', 'false'),
  ('Cc1ccc(C(=O)CSc2nnc(-c3ccc(-c4ccc(Cl)cc4)nc3C)o2)cc1', 'HL-60(TB) leukemia', 'false'),
  ('Cc1ccc(NC(=O)N[C@@H](Cc2cc(F)cc(F)c2)C(=O)NC2C(=O)N3C[C@H](O)C[C@H]3C(=O)N3CCCC[C@H]3C(=O)N[C@@H](CO)C(=O)N3C[C@H](C)C[C@H]3C(=O)O[C@H]2C)c(F)c1 (some centres not stated)', 'HL-60(TB) leukemia', 'false'),
  ('C=C(C)[C@@H]1CC[C@]2(C(=O)NCCCN(CCC#N)CCC#N)CC[C@]3(C)[C@H](CC[C@@H]4[C@@]5(C)CCC(=O)C(C)(C)[C@@H]5CC[C@]43C)[C@@H]12', 'HL-60(TB) leukemia', 'false');

## Input Lab note: growth threshold 10%. Does this molecule come in strictly under it? CC(C)c1ccc(NCc2cn(-c3ccc(C(=O)O)cc3)nc2-c2cc(C(F)(F)F)cc(C(F)(F)F)c2)cc1
## Output false

## Input Lab note: growth threshold 10%. Does this molecule come in strictly under it? CC1=C(C)C(=O)C(Nc2cccc(C(=O)OC(C)(C)C)c2)=C(Cl)C1=O
## Output false

## Input Lab note: growth threshold 10%. Does this molecule come in strictly under it? O=S(=O)(Nc1cc(Cl)c(F)c(Cl)c1)c1ccc(-c2cnc(C3CC3)o2)cc1
## Output false

## Input Lab note: growth threshold 10%. Does this molecule come in strictly under it? COc1ccc(COc2ccc(/C=C3/C(=O)Nc4cc(Cl)ccc43)cc2)cc1
## Output false

## Input Lab note: growth threshold 10%. Does this molecule come in strictly under it? O=C(Nc1ccc(N=Cc2c(O)[nH]c3ccccc23)cc1)Nc1nccs1
## Output false

## Input Lab note: growth threshold 10%. Does this molecule come in strictly under it? CCOc1ccc([C@H]2C(C(=O)c3ccc(Cl)cc3)C3(N[C@@H]2c2ccccc2)C(=O)Nc2ccc(Br)cc23)cc1 (some centres not stated)
## Output false

## Input Lab note: growth threshold 10%. Does this molecule come in strictly under it? NC(=O)c1c(NC(=O)c2cccc(OC(F)(F)F)c2)sc2c1CCC(=O)C2
## Output false

## Input Lab note: growth threshold 10%. Does this molecule come in strictly under it? O=C1[C@H]2Cc3c([nH]c4ccccc34)[C@@H](c3c(Cl)cccc3Cl)N2C(=O)CN1C1CCN(CC2CCCCC2)CC1
## Output false

## Input Lab note: growth threshold 10%. Does this molecule come in strictly under it? COc1ccc(-c2oc3cc(O)cc(O)c3c(=O)c2OC)cc1O
## Output true

## Input Lab note: growth threshold 10%. Does this molecule come in strictly under it? CC1=C2C(=O)[C@](C)(CO)C=C2C(=O)[C@](C)(O)C12CC2
## Output true

## Input Lab note: growth threshold 10%. Does this molecule come in strictly under it? CC(C)(O)c1cncc(-c2ccc3ncc(C#N)c(N4CCc5cc(F)c(Cl)cc54)c3c2)c1
## Output false

## Input Lab note: growth threshold 10%. Does this molecule come in strictly under it? CCOC(=O)c1c(NC(=O)c2cccc(C(F)(F)F)c2)sc2c3c(ccc12)OCN(C)C3
## Output true

## Input Lab note: growth threshold 10%. Does this molecule come in strictly under it? O=C1[C@@H]2Cc3c([nH]c4ccccc34)[C@H](c3ccc(Br)cc3)N2C(=O)CN1C1CCN(Cc2c(Cl)cccc2Cl)CC1
## Output true

## Input Lab note: growth threshold 10%. Does this molecule come in strictly under it? CSc1ccc2c(c1)N(C(=O)/C(C#N)=C/c1c[nH]c3ccccc13)c1ccccc1S2
## Output false

## Input Lab note: growth threshold 10%. Does this molecule come in strictly under it? Nc1c(C(=O)Nc2ccc(Cl)cc2)sc2nc(-c3cnccn3)cc(-c3cccs3)c12
## Output false

## Input Lab note: growth threshold 10%. Does this molecule come in strictly under it? N/C(=N\c1nc2c(Br)cccc2s1)C(Br)Br
## Output true

## Input Lab note: growth threshold 10%. Does this molecule come in strictly under it? COc1cc(/C=C/C(=O)c2cc(OC)c(OC)c(OC)c2)ccc1OCc1ccccc1
## Output true
